Experiment: clinical
Details: human, in vivo, iv, CL
measurement.name: clearance (mL/min/kg)

molecule | quantitative.result
Cc1cc(-n2cccc2)c(S(C)(=O)=O)cc1C(=O)NC(=N)N [ENIPORIDE] | 8.2
CC1(C)S[C@@H]2[C@H](NC(=O)COc3ccccc3)C(=O)N2[C@H]1C(=O)O | 6.8
NC[C@H]1O[C@H](O[C@H]2[C@H](O)[C@@H](O[C@H]3O[C@H](CO)[C@@H](O)[C@H](N)[C@H]3O)[C@H](N)C[C@@H]2N)[C@H](N)C[C@@H]1O | 1.6
CC/C=C\C/C=C\C/C=C\C/C=C\C/C=C\C/C=C/CCC(=O)O[C@@H](C(=O)O[C@H]1C[C@@]2(O)[C@@H](OC(=O)c3ccccc3)C3[C@](C)(C(=O)[C@H](OC(C)=O)C(=C1C)C2(C)C)[C@@H](O)C[C@H]1OC[C@@]31OC(C)=O)[C@@H](NC(=O)c1ccccc1)c1ccccc1 (some centres undefined) | 0.025

====

As shown below, each of these molecules has a reported half-life value.
Assay: clinical
Settings: human, in vivo, iv, t1/2
measurement.name: half-life

molecule | result
C[C@@H]1CN(c2c(F)c(N)c3c(=O)c(C(=O)O)cn(C4CC4)c3c2F)C[C@H](C)N1 | 20 h
COc1cc2ncnc(Nc3ccc(F)c(Cl)c3)c2cc1OCCCN1CCOCC1 | 34 h
CCCCC/C=C\CCC(=O)N[C@H]1[C@H](Oc2c3cc4cc2Oc2ccc(cc2Cl)[C@@H](O[C@@H]2O[C@H](CO)[C@@H](O)[C@H](O)[C@H]2NC(C)=O)[C@@H]2NC(=O)[C@H](NC(=O)[C@@H]4NC(=O)[C@H]4NC(=O)[C@@H](Cc5ccc(c(Cl)c5)O3)NC(=O)[C@H](N)c3ccc(O)c(c3)Oc3cc(O)cc4c3)c3ccc(O)c(c3)-c3c(O[C@H]4O[C@H](CO)[C@@H](O)[C@H](O)[C@@H]4O)cc(O)cc3[C@@H](C(=O)O)NC2=O)O[C@H](CO)[C@@H](O)[C@@H]1O | 150 h
CN(CCOc1ccc(CC2SC(=O)NC2=O)cc1)c1ccccn1 (stereo not given) | 3.9 h
O=C(O)P(=O)(O)O | 4.7 h

====

Below is a list of entries, each paired with its recorded MRT value.
Assay: clinical
Settings: human, in vivo, iv

molecule | MRT
CC1CCN(CCCC(=O)c2ccc(F)cc2)CC1 | 5 h
CCCCc1nc(Cl)c(CO)n1Cc1ccc(-c2ccccc2-c2nn[nH]n2)cc1 | 0.75 h
CO/N=C(\C(=O)N[C@@H]1C(=O)N2C(C(=O)O)=C(CSc3nc(C)c(CC(=O)O)s3)CS[C@H]12)c1csc(N)n1 | 1.5 h
CCN(CC)CCCC(C)Nc1ccnc2cc(Cl)ccc12 (configuration not stated) | 740 h
CC[C@]1(O)C[C@H]2CN(CCc3c([nH]c4ccccc34)[C@@](C(=O)OC)(c3cc4c(cc3OC)N(C=O)[C@H]3[C@@](O)(C(=O)OC)[C@H](OC(C)=O)[C@]5(CC)C=CCN6CC[C@]43[C@@H]65)C2)C1 | 20 h
CCO[C@@H](Cc1ccc(OCCc2ccc(OS(C)(=O)=O)cc2)cc1)C(=O)O | 56 h
O=C(O[C@@H]1C[C@@H]2C[C@H]3C[C@H](C1)N2CC3=O)c1c[nH]c2ccccc12 | 0.19 h

====

Experiment: clinical
Settings: human, in vivo, iv, CL
// classify: if (clearance < 4 mL/min/kg) 1 else 0

compound | class.label
C[C@@H]1CC2=CC(=O)CC[C@]2(C)[C@H]2CC[C@@]3(C)[C@@H](CC[C@@H]3O)[C@]12C | 0
C[C@H]1O[C@@H](n2cc(F)c(=O)[nH]c2=O)[C@H](O)[C@@H]1O | 0
CCCC1C(=O)N2C(N(C)C)=Nc3ccc(C)cc3N2C1=O (centres undefined) | 1
CN(C)CCC=C1c2ccccc2COc2ccccc21 [DOXEPIN] | 0
CCO[C@@H](Cc1ccc(OCCc2ccc(OS(C)(=O)=O)cc2)cc1)C(=O)O | 1
CC[C@]1(O)C[C@@H]2CN(CCc3c([nH]c4ccccc34)[C@@](C(=O)OC)(c3cc4c(cc3OC)N(C)[C@H]3[C@@](O)(C(N)=O)[C@H](O)[C@]5(CC)C=CCN6CC[C@]43[C@@H]65)C2)C1 | 1
CC(C)[C@H]1CC[C@H](C(=O)N[C@H](Cc2ccccc2)C(=O)O)CC1 [NATEGLINIDE] | 1
Nc1n[n+]([O-])c2ccccc2[n+]1[O-] | 0
C[C@]12CC[C@@H]3c4ccc(O)cc4CC[C@H]3[C@@H]1CC[C@@H]2O | 0
C#C[C@]1(O)C=C[C@H]2[C@@H]3CCC4=CC(=O)CC[C@@H]4[C@H]3CC[C@@]21CC | 1
O=C1Nc2ccc(Cl)cc2C(c2ccccc2Cl)=NC1O (centres undefined) | 1
OC(CCN1CCCC1)(c1ccccc1)C1CCCCC1 (centres undefined) | 1
C=CCN1CCCC1CNC(=O)c1cc2[nH]nnc2cc1OC (centres undefined) [ALIZAPRIDE] | 0
O=c1[nH]cnc2c1ncn2[C@H]1CC[C@@H](CO)O1 | 0
CC(=O)Nc1c(I)c(NC(C)=O)c(I)c(C(=O)O)c1I | 1
Cc1ccc(C(=O)Nc2ccc(S(=O)(=O)O)c3cc(S(=O)(=O)O)cc(S(=O)(=O)O)c23)cc1NC(=O)c1cccc(NC(=O)Nc2cccc(C(=O)Nc3cc(C(=O)Nc4ccc(S(=O)(=O)O)c5cc(S(=O)(=O)O)cc(S(=O)(=O)O)c45)ccc3C)c2)c1 | 1
Nc1ccn([C@@H]2CO[C@H](CO)O2)c(=O)n1 | 1
O=C(O)c1cc(/N=N/c2ccc(O)c(C(=O)O)c2)ccc1O | 1
O=C(O)Cc1ccccc1Nc1c(Cl)cccc1Cl | 1
Cc1ncsc1CCCl | 0
COc1cc2c(c(OC)c1OC)-c1ccc(OC)c(=O)cc1[C@@H](NC(C)=O)CC2 | 1
C=CCc1ccccc1OCC(O)CNC(C)C (centres undefined) | 0
CCOC(=O)C1=C(C)NC(C)=C(C(=O)OC)C1c1cccc([N+](=O)[O-])c1 (centres undefined) | 0
CCC(=O)O[C@](Cc1ccccc1)(c1ccccc1)[C@H](C)CN(C)C | 0
NCCCC[C@H](N[C@@H](CCc1ccccc1)C(=O)O)C(=O)N1CCC[C@H]1C(=O)O [LISINOPRIL ANHYDROUS] | 1
CC(C(=O)O)c1ccc(C(=O)c2cccs2)cc1 (centres undefined) | 1
Cc1nccn1CC1CCc2c(c3ccccc3n2C)C1=O (centres undefined) | 0
CN[C@@H]1CCc2[nH]c3ccc(C(N)=O)cc3c2C1 | 1
CC1=C(CO)C2=C(C)C3(CC3)[C@@](C)(O)C(=O)C2=C1 | 0
COc1ccnc(C[S+]([O-])c2nc3ccc(OC(F)F)cc3[nH]2)c1OC (centres undefined) | 1
CCN(CC)CCNC(=O)c1ccc(NS(C)(=O)=O)cc1 [SEMATILIDE] | 1
C[C@H]1O[C@H](O[C@H]2[C@H](O)[C@@H](O)[C@@H](O[C@H]3[C@H](O)[C@@H](O)C(O)O[C@@H]3CO)O[C@@H]2CO)[C@H](O)[C@@H](O)[C@@H]1N[C@H]1C=C(CO)[C@@H](O)[C@H](O)[C@H]1O (some centres undefined) | 1
COc1ccc2c3c1O[C@H]1C(=O)CC[C@@]4(O)[C@@H](C2)N(C)CC[C@]314 | 0
Cc1ncc([N+](=O)[O-])n1CCO | 1

====

Assay: clinical
Conditions: human, in vivo, iv, Vdss

compound | Vd
Cc1cn([C@H]2C[C@H](N=[N+]=[N-])[C@@H](CO)O2)c(=O)[nH]c1=O [ZIDOVUDINE] | 1.8 L/kg
[H]/N=C(/N)N[C@H]1[C@H](O)[C@@H](O)[C@H](O[C@@H]2O[C@@H](C)[C@](O)(C=O)[C@H]2O[C@@H]2O[C@@H](CO)[C@H](O)[C@@H](O)[C@@H]2NC)[C@@H](N/C(N)=N\[H])[C@@H]1O [STREPTOMYCIN] | 0.34 L/kg
COc1cc(CC2c3c(cc(OC)c(OC)c3OC)CC[N+]2(C)CCCOC(=O)CCC(=O)OCCC[N+]2(C)CCc3cc(OC)c(OC)c(OC)c3C2Cc2cc(OC)c(OC)c(OC)c2)cc(OC)c1OC (stereo not drawn) [DOXACURIUM] | 0.22 L/kg
CN(C)C(=N)N=C(N)N [METFORMIN] | 0.64 L/kg
CC(C(=O)O)c1ccc(C(=O)c2cccs2)cc1 (stereo not drawn) [SUPROFEN] | 0.04 L/kg
CC(=O)N[C@@H](CS)C(=O)O [ACETYLCYSTEINE] | 0.55 L/kg
CN1CCN(CCCN2c3ccccc3Sc3ccc(Cl)cc32)CC1 [PROCHLORPERAZINE] | 22 L/kg
C[C@@H](c1ncncc1F)[C@](O)(Cn1cncn1)c1ccc(F)cc1F [VORICONAZOLE] | 2.2 L/kg
CN1CCN(CCCCN2C(=O)CN(/N=C/c3ccc(-c4ccc(Cl)cc4)o3)C2=O)CC1 [AZIMILIDE] | 13 L/kg
Nc1nc2c(ncn2CCC(CO)CO)c(=O)[nH]1 [PENCICLOVIR] | 1.1 L/kg
CN1CCN2c3ncccc3Cc3ccccc3C2C1 (stereo not drawn) [MIRTAZAPINE] | 4.2 L/kg
CCOc1ccccc1OCCN[C@H](C)Cc1ccc(OC)c(S(N)(=O)=O)c1 [TAMSULOSIN] | 0.21 L/kg
CCN1CCC[C@H]1CNC(=O)c1c(OC)ccc(Br)c1OC [REMOXIPRIDE] | 0.65 L/kg
